# Test system: NCI/ADR-RES ovarian
# Protocol description: NCI tumour cell line growth inhibition, 48 h
Measurement kind: TGI

Given item C=C1C(C[C@@H]2O[C@H]3C[C@H]4O[C@@]5(C[C@@H]6O[C@]7(C[C@H](C)[C@@H]8O[C@@H]9CC(C(O)CO)O[C@@H]9C[C@@H]8O7)C[C@H](C)[C@@H]6O5)C[C@H]4O[C@H]3[C@H](C)[C@H]2O)O[C@@H](CC[C@@H]2O[C@@H](CC[C@@]34CC5O[C@H]6C(O[C@H]7CC[C@H](CC(=O)OC)O[C@@H]7[C@@H]6O3)[C@H]5O4)CC2=C)C[C@H]1C (stereo partly specified) , the value recorded as its TGI is 0.0772 µM

Given item COc1ccc(C(=O)/C=C/c2cc(C(=O)c3cc(OC)c(OC)c(OC)c3)ccc2OC)cc1 , the value recorded as its TGI is > 100 µM

Value source: PubChem BioAssay (NCI)
